Experimental Protocol: adipocyte viability effects, profiling panel, cell-based, 3T3-L1 adipocytes, calcein-AM fluorescence, 48 h, basal (AID 1163); further: test concentration not given here
Condition: 3T3-L1 adipocytes viability, higher = more signal
# note: exactly 0.5 is not below, so it is no; use yes for z-score strictly under it

In: Report whether reported z-score is lower than 0.5 (strictly) for CC(C)N1C(=O)C[C@@](C(=O)NCCCN(C)C)(c2ccc([N+](=O)[O-])cc2)[C@H]1c1ccc(CO)cc1
Out: yes

In: Report whether reported z-score is lower than 0.5 (strictly) for COc1ccc(C(O)C2C=CC3C(=O)N(c4ccccc4)C(=O)C3N2Nc2ccc([N+](=O)[O-])cc2)cc1 (stereo not drawn)
Out: yes

In: Report whether reported z-score is lower than 0.5 (strictly) for CCCCC(=C=CC[C@@H](O)c1ccccc1OCCO)C[C@@H](O)COCc1ccccc1
Out: no

In: Report whether reported z-score is lower than 0.5 (strictly) for NC(=O)NCC#Cc1ccc2c(c1)[C@]1(C(=O)N2)[C@H](C(=O)O)[C@H]2C(=O)O[C@H](c3ccccc3)[C@H](c3ccccc3)N2[C@@H]1c1ccc(OCCO)cc1
Out: yes

In: Report whether reported z-score is lower than 0.5 (strictly) for COc1ccc([Si](C)(C)[C@H]2[C@H](CCn3cc([C@H](O)c4ccccc4)nn3)O[C@@]3(C(=O)N(Cc4ccc(N5C(=O)c6cccc7cccc5c67)cc4)c4ccccc43)[C@@H]2C)cc1
Out: yes

In: Report whether reported z-score is lower than 0.5 (strictly) for COC(=O)[C@@]1(Cc2ccc(OC)cc2)[C@H]2c3cc(C(=O)N(C)C)n(C[C@H](O)CO)c3C[C@H]2CN1C(=O)c1ccccc1
Out: yes

In: Report whether reported z-score is lower than 0.5 (strictly) for C=C(COC)/C(=C/C[C@H](OC(=O)c1ccncc1)c1ccccc1OCCO)c1cnc2ccccc2c1
Out: no

In: Report whether reported z-score is lower than 0.5 (strictly) for COc1cc(OC)c(C(O)C2C=CC3C(=O)N(c4ccccc4)C(=O)C3N2Nc2ccccc2)cc1Br (stereo not drawn)
Out: yes

In: Report whether reported z-score is lower than 0.5 (strictly) for O=C(NCC(F)(F)F)[C@@H]1c2ccccc2C(=O)N(Cc2ccccc2C(F)(F)F)[C@H]1c1ccc(CO)cc1
Out: yes

In: Report whether reported z-score is lower than 0.5 (strictly) for NCCCCCCNC(=O)[C@@H]1C[C@@H]2C(=O)N[C@@H](CCCCN)C(=O)N2[C@@H]1c1cccc(OCCO)c1
Out: yes

In: Report whether reported z-score is lower than 0.5 (strictly) for O=C1O[C@H](c2ccccc2)[C@H](c2ccccc2)N2[C@H]1[C@@H](C(=O)Nc1nc3ccccc3s1)[C@]1(C(=O)Nc3ccc(C#CC4(O)CCCCCC4)cc31)[C@H]2c1ccccc1OCCO
Out: yes

In: Report whether reported z-score is lower than 0.5 (strictly) for CCCCCCCCCCC(O)C1C=CC2C(=O)N(C)C(=O)C2N1Nc1ccc([N+](=O)[O-])cc1[N+](=O)[O-] (stereo not drawn)
Out: yes

In: Report whether reported z-score is lower than 0.5 (strictly) for COCCOC(=O)N1C(=O)[C@@]2(c3cc(C#Cc4ccc(OC)cc4)ccc31)[C@H](c1ccccc1OCCO)N1[C@H](c3ccccc3)[C@H](c3ccccc3)OC(=O)[C@H]1[C@@H]2C(=O)N1CCCCCCC1
Out: no

In: Report whether reported z-score is lower than 0.5 (strictly) for C=CC[C@]1(C(=O)NCCN2CCOCC2)N=C(c2ccc(OCCCO)cc2)O[C@H]1c1ccccc1CN=[N+]=[N-]
Out: no

In: Report whether reported z-score is lower than 0.5 (strictly) for CO[C@H]1O[C@H](CO)[C@@H](OC(=O)Nc2ccc3c(c2)OCO3)[C@H](OC(=O)c2cc3ccccc3[nH]2)[C@H]1OC(=O)c1cc2ccccc2[nH]1
Out: yes

In: Report whether reported z-score is lower than 0.5 (strictly) for O=C1OCC=C[C@H]2OC34C=CCN(Cn5nnc6ccccc65)C(=O)[C@H]3N(CCCO)C(=O)[C@@H]4[C@@H]12 (stereo partly drawn)
Out: no

In: Report whether reported z-score is lower than 0.5 (strictly) for COc1ccc(C#Cc2ccc3c(c2)[C@]2(C(=O)N3)[C@H](c3ccc(O)cc3)N3[C@H](c4ccccc4)[C@H](c4ccccc4)OC(=O)[C@H]3[C@@H]2C(=O)O)cc1
Out: no

In: Report whether reported z-score is lower than 0.5 (strictly) for CC(C)C[C@@H]1NC(=O)[C@@H]2C[C@H](C(=O)NCCCCCN)[C@H](c3ccc(O)cc3)N2C1=O
Out: yes

In: Report whether reported z-score is lower than 0.5 (strictly) for C=C[C@@H](COC(C)=O)N(C(=O)OC(C)(C)C)S(=O)(=O)c1ccc(Br)cc1
Out: yes

In: Report whether reported z-score is lower than 0.5 (strictly) for COc1ccc([Si](C)(C)[C@@H]2[C@@H](CCn3cc([C@H](O)c4ccccc4)nn3)O[C@]3(C(=O)N(Cc4ccc(N5CCC5=O)cc4)c4ccccc43)[C@H]2C)cc1
Out: no

In: Report whether reported z-score is lower than 0.5 (strictly) for COCCCNC(=O)[C@@]1(Cc2ccccc2N=[N+]=[N-])N=C(c2ccc(OCCCO)cc2)O[C@H]1c1ccccc1
Out: no

In: Report whether reported z-score is lower than 0.5 (strictly) for Cc1ccc(S[C@]2(C(=O)O)CC(=O)N(Cc3cc(C(F)(F)F)cc(C(F)(F)F)c3)[C@@H]2c2ccc(CO)cc2)cc1
Out: yes

In: Report whether reported z-score is lower than 0.5 (strictly) for [N-]=[N+]=NCc1ccccc1[C@H]1OC(c2ccc(OCCCO)cc2)=N[C@@]1(CCS(=O)(=O)c1ccccc1)C(=O)N1CCCCC1
Out: no

In: Report whether reported z-score is lower than 0.5 (strictly) for C=C(COC)C(=O)CC[C@@H](OC(=O)c1cccnc1)c1ccc(OCCO)cc1
Out: yes

In: Report whether reported z-score is lower than 0.5 (strictly) for O=C1C=C(c2ccccc2)C(=O)c2ccc([C@H]3Oc4ccccc4S(=O)(=O)N4CCC[C@@H]34)cc21
Out: yes

In: Report whether reported z-score is lower than 0.5 (strictly) for CO[C@]12C=C(Br)[C@@H](C[C@@H]1c1cccc(C)c1)[C@@]1(CO1)C2=O
Out: yes

In: Report whether reported z-score is lower than 0.5 (strictly) for O=C(NCC(F)(F)F)[C@@H]1c2ccccc2C(=O)N(Cc2cc(F)cc(C(F)(F)F)c2)[C@H]1c1ccc(CO)cc1
Out: no

In: Report whether reported z-score is lower than 0.5 (strictly) for C=C(/C(=C/C[C@@H](OC(C)=O)c1cccc(OCCO)c1)c1cc(C(=O)OC)ccc1OC)C(C)C
Out: yes

====

Experimental Protocol: binders of probe aFGF2 on microarray, primary screen, stem cell growth factor project, biochemical, small-molecule microarray, fluorescence 635/667 (AID 1067);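 further: measures binding of biotinylated aFGF2 protein to printed compounds on slides; z-score merges feature fluorescence and signal-to-noise across triplicate slides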
Condition: higher = more signal
Measured Quantity: composite z-score
Respond with the number and no other words.

In: Need composite z-score, item O=C1OCCC=C[C@H]2OC34C=CCN(Cn5nnc6ccccc65)C(=O)[C@H]3N(CCCCCCO)C(=O)[C@@H]4C12 (stereo partly drawn)
Out: -0.129

In: Need composite z-score, item O=C1NC(=O)C2C1C=CC(C(O)CCc1ccccc1)N2Nc1ccc(Cl)cc1Cl (stereo not drawn)
Out: 0.153

In: Need composite z-score, item C=C(/C(=C/C[C@@H](OC(C)=O)c1cccc(OCCO)c1)c1cc(C(=O)OC)ccc1OC)C(C)C
Out: -0.0799

In: Need composite z-score, item CCCC[C@@H](O)C1=C(COc2ccccc2)C[C@H]2C(=O)N(C)C(=O)[C@H]2[C@H]1CO
Out: -0.128

In: Need composite z-score, item CN(C)CCCNC(=O)[C@@]1(C)c2ccccc2C(=O)N(Cc2ccccc2)[C@H]1c1ccc(CO)cc1
Out: -0.116

In: Need composite z-score, item O=C1NC(=O)C2C1C=CC(C(O)c1cccc3ccccc13)N2Nc1ccc(Cl)cc1Cl (stereo not drawn)
Out: -0.0752

In: Need composite z-score, item O=C1O[C@H](c2ccccc2)[C@H](c2ccccc2)N2[C@H]1[C@@H](C(=O)Nc1nc3ccccc3s1)[C@]1(C(=O)Nc3ccc(C#CCCO)cc31)[C@H]2c1ccc(O)cc1
Out: -0.0074

In: Need composite z-score, item CN(C)CCCNC(=O)[C@@H]1c2ccccc2C(=O)N(Cc2ccccc2Cl)[C@H]1c1ccc(CO)cc1
Out: -0.19

====

Experimental Protocol: small-molecule binders of probe aNOTCH3, primary screen, biochemical, small-molecule microarray, 635/667 nm fluorescence (AID 1120);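 further: probe is a biotin-tagged antibody raised against NOTCH3 rather than NOTCH3 protein; score merges spot fluorescence near 667 nm with spot signal to noise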
Condition: higher = more signal
Measured Quantity: composite z-score
Respond with the number and no other words.

In: Need composite z-score, item C=CCN1C(=O)[C@@]2(CCS(=O)(=O)c3ccccc3)N=C(c3ccc(OCCCO)cc3)O[C@H]2c2ccccc21
Out: -0.0302

In: Need composite z-score, item O=C1C=C(c2ccccc2)C(=O)c2ccc([C@H]3Oc4ccccc4S(=O)(=O)N4CCC[C@@H]34)cc21
Out: -0.185

In: Need composite z-score, item C=C(/C(=C/C[C@H](OC(C)=O)c1cccc(OCCO)c1)c1cnc2ccccc2c1)C(C)C
Out: 0.0701

In: Need composite z-score, item C=C(/C(=C/C[C@H](OC(C)=O)c1ccccc1OCCO)c1cc(C(=O)OC)ccc1OC)C(C)C
Out: -0.0782

In: Need composite z-score, item COC(=O)[C@@]1(Cc2ccc(OC)cc2)[C@H]2c3cc(C(=O)N4CCCC4)n(Cc4c(-c5ccccc5)noc4C)c3C[C@H]2CN1C(=O)c1ccccc1
Out: 0.576

In: Need composite z-score, item CCOc1cc(C(O)C2C=CC3C(=O)N(C)C(=O)C3N2Nc2ccccc2)ccc1O (stereo not drawn)
Out: 0.194

In: Need composite z-score, item Cc1cc(C)c(C(O)C2C=CC3C(=O)N(c4ccccc4)C(=O)C3N2Nc2ccc(C(C)C)cc2)c(C)c1 (stereo not drawn)
Out: 0.331

In: Need composite z-score, item NC(N)=NCCCn1cc(CNC(=O)[C@@H](N)Cc2ccccc2)nn1
Out: 0.0126
